# ASSAY COMMENT: Pharmacokinetics in rat
# Type: in vivo
# REPORTED CONDITIONS: plasma; rat, IV 3 mg/kg single dose, mean (SD); read-out: CLp (converted)
OUTCOME MEASURE: clearance (mL/min/kg)

SMILES TEXT	OUTCOME MEASURE	UNITS	RECORDED MEASUREMENT
CC[C@@H]1CN(C(=O)NCC(F)(F)F)C[C@@H]1c1cnc2cnc3[nH]ccc3n12	clearance	mL/min/kg	33.3

* * *

# ASSAY COMMENT: Pharmacokinetics in monkey
# Assay type: in vivo
# REPORTED CONDITIONS: plasma, IV, read-out: plasma elimination t½ (converted)
OUTCOME MEASURE: half-life (h)

MOLECULE	OUTCOME MEASURE	RECORDED MEASUREMENT
CC[C@@H]1CN(C(=O)NCC(F)(F)F)C[C@@H]1c1cnc2cnc3[nH]ccc3n12 [Compound 1]	half-life	1.2
